TEST_METHOD_NOTES: physchem
Description: Dissociation constant, pKa by potentiometric titration
MEASUREMENT_TYPE: pKa
Number only, please.

Give recorded pKa. Cc1cc[n+](CCCCCCCCCCCCCCCC[n+]2ccc(C)cc2N)c(N)c1
13.6

Give recorded pKa. N=c1c2ccccc2ccn1CCCCCCCCCCCCn1ccc2ccccc2c1=N
11.1

Give recorded pKa. Nc1cccc[n+]1CCCCCCCCCCCC[n+]1ccccc1N
13.5

Give recorded pKa. Nc1cc(-c2ccccc2)cc[n+]1CCCc1ccc(CCC[n+]2ccc(-c3ccccc3)cc2N)cc1
12.6

Give recorded pKa. Cc1ccc(-c2nn(CCCCCCCCCCCCn3nc(-c4ccc(C)cc4)sc3=N)c(=N)s2)cc1
8.1

Give recorded pKa. CN1CCN=C1CCCCCCCCCCCCC1=NCCN1C
11

Give recorded pKa. C(CCCCCCC1=NCCN1)CCCCCC1=NCCN1
13

Give recorded pKa. Nc1ccc(Cl)c[n+]1CCCCCCCCCCCC[n+]1cc(Cl)ccc1N
12.8

Give recorded pKa. Cc1cc[n+](CCCc2ccc(CCC[n+]3ccc(C)cc3N)cc2)c(N)c1
12.6

Give recorded pKa. N=C(N)CCCCCCCCCCCCCCCCC(=N)N
13.2

Give recorded pKa. N=C(CCCCCCCCCCCCC(=N)N1CCCCC1)N1CCCCC1
12.6

Give recorded pKa. C(CCCCCCC1=NCCCN1)CCCCCC1=NCCCN1
13.1

Give recorded pKa. C(CCCCCCNC1=NCCCC1)CCCCCNC1=NCCCC1
12.7

Give recorded pKa. N=c1sc(-c2cccs2)nn1CCCCCCCCCCCCn1nc(-c2cccs2)sc1=N
7.8

Give recorded pKa. CC(=N)NCCCCCCCCCCCCNC(C)=N
12.6

Give recorded pKa. CCOC(=N)CCCCCCCCCCCCC(=N)OCC
7.6

Give recorded pKa. C(CCCCCCNC1=NCCN1)CCCCCNC1=NCCN1
13.5

Give recorded pKa. N=c1sccn1CCCCCCCCCCCCn1ccsc1=N
10.1

Give recorded pKa. c1ccc2[nH]c(CCCCCCCCCCCCc3nc4ccccc4[nH]3)nc2c1
9

Give recorded pKa. N=c1ncccn1CCCCCCCCCCCCn1cccnc1=N
11.7

Give recorded pKa. N=c1cc2ccc3ccccc3c2nn1CCCCCCCCCCCCn1nc2c(ccc3ccccc32)cc1=N
11.7

Give recorded pKa. N=c1sc(-c2ccccc2)nn1CCCCCCCCCCCCn1nc(-c2ccccc2)sc1=N
8

Give recorded pKa. N=c1n(CCCCCCCCCCCCn2c(=N)n(Cc3ccccc3)c3ccccc32)c2ccccc2n1Cc1ccccc1
9.4

Give recorded pKa. N=c1ncc(-c2ccccc2)cn1CCCCCCCCCCCCn1cc(-c2ccccc2)cnc1=N
11.3

Give recorded pKa. Nc1ccc(-c2ccccc2)c[n+]1CCCc1ccc(CCC[n+]2cc(-c3ccccc3)ccc2N)cc1
12.8

Give recorded pKa. N=C(N)CCCCCCCCCCCCC(=N)N
13.6

Give recorded pKa. C(CCCCCCNC1=NCCC1)CCCCCNC1=NCCC1
12.1

Give recorded pKa. CN(C)C(=N)NCCCCCCCCCCCCNC(=N)N(C)C
14.1

Give recorded pKa. Cc1ccc[n+](CCCCCCCCCCCC[n+]2cccc(C)c2N)c1N
13.3

Give recorded pKa. Cn1c(=N)n(CCCCCCCCCCCCn2c(=N)n(C)c3ccccc32)c2ccccc21
11.9

Give recorded pKa. Cc1ccc(N)[n+](CCCCCCCCCCCC[n+]2cc(C)ccc2N)c1
13

Give recorded pKa. N=C(CCCCCCCCCCCCC(=N)N1CCCC1)N1CCCC1
13.2

Give recorded pKa. c1c[nH]c(CCCCCCCCCCCCc2ncc[nH]2)n1
9.8

Give recorded pKa. Cc1cc[n+](CCCCCCCCCCCC[n+]2ccc(C)cc2N)c(N)c1
13.5

Give recorded pKa. CN(C)C(=N)CCCCCCCCCCCCC(=N)N(C)C
12.8

Give recorded pKa. N=c1sc(-c2cccc(Cl)c2)nn1CCCCCCCCCCCCn1nc(-c2cccc(Cl)c2)sc1=N
7.7
